Tested on: Mycobacterium tuberculosis Erdman
Assay: Biofilm inhibition of Mycobacterium tuberculosis (ocular inspection)
Assay type: cell-based
Settings: concentration at which full biofilm inhibition took place, replicate determinations in one cell
Observed Property: minimal effective concentration (µM)
Report the value in µM with no unit label.

Exam item: I'd like to know its minimal effective concentration. The compound in question is N[C@@H]1CSc2c(C3CC3)c(Cc3cccc4ccccc34)cc(=O)n21
Marked response: 25

Exam item: If you can, please state the reported minimal effective concentration value of COc1ccc2ccccc2c1Cc1cc(=O)n2c(c1C1CC1)SC[C@H]2C(=O)O .
Marked response: 25

Exam item: Requested field: minimal effective concentration. Item: O=C(O)[C@@H]1CSc2c(C3CC3)c(Cc3cccc(Cl)c3Cl)cc(=O)n21
Marked response: 25

Exam item: Return reported minimal effective concentration; argument: O=C(O)[C@@H]1CSc2c(C3CC3)c(Cc3ccc(Br)c4ccccc34)cc(=O)n21
Marked response: 50

Exam item: Recorded minimal effective concentration of O=C(NNC(=O)C1CSc2c(C3CC3)c(Cc3cccc4ccccc34)cc(=O)n21)c1ccncc1 (centres unmarked) , please.
Marked response: 25

Exam item: # query: minimal effective concentration of entry O=C(O)c1c(-c2ccccc2)sc2c(C3CC3)c(Cc3cccc4ccccc34)cc(=O)n12
Marked response: 50

Exam item: Sample Cc1cccc(Cc2cc(=O)n3c(c2C2CC2)SC[C@H]3C(=O)O)c1 — what was its minimal effective concentration?
Marked response: 25

---

Test system: Mycobacterium tuberculosis Erdman
Assay: Biofilm inhibition of Mycobacterium tuberculosis (ocular inspection)
Format: cell-based
Conditions: biofilm inhibition, 25 μM, average of three or more measurements (100/50/0% scoring), read-out: Average % Inhibition at 25 μM
The threshold is inclusive: inhibition at 25 µM of exactly 40% counts as Satisfied; values below receive Not satisfied.

Exam item: Dear colleague, could you confirm whether Cc1cccc(Cc2cc(=O)n3c(c2C2CC2)SC[C@H]3C(=O)O)c1 [Example 27] has inhibition at 25 µM at or above 40%?
Marked response: Satisfied

Exam item: For this molecule, is measured inhibition at 25 µM 40% or higher? CON(C)C(=O)[C@@H]1CSc2c(C3CC3)c(Cc3cccc4ccccc34)cc(=O)n21 [Example 11]
Marked response: Not satisfied

Exam item: API: above_or_equal(metric=inhibition at 25 µM, cutoff=40%) for item O=C(O)[C@@H]1CSc2c(C3CC3)c(Cc3ccc(Cl)cc3)cc(=O)n21 [Example 25]
Marked response: Not satisfied

Exam item: Does the reported inhibition at 25 µM for O=C(O)C1CS(=O)(=O)c2c(C3CC3)c(Cc3cccc4ccccc34)cc(=O)n21 (centres unmarked) [Example 42] fall at or above the 40% mark?
Marked response: Not satisfied

Exam item: Dear colleague, could you confirm whether O=C(NS(=O)(=O)c1ccccc1)[C@@H]1CSc2c(C3CC3)c(Cc3cccc4ccccc34)cc(=O)n21 [Example 22] has inhibition at 25 µM at or above 40%?
Marked response: Not satisfied

Exam item: Hi, just wondering whether Cc1c(Cc2cccc3ccccc23)cc(=O)n2c1SC[C@H]2C(=O)O [Example 10] shows inhibition at 25 µM of 40% or higher.
Marked response: Satisfied

Exam item: Given O=C(O)[C@@H]1CSc2c(-c3cccs3)c(Cc3cccc4ccccc34)cc(=O)n21 [Example 17] , state whether its inhibition at 25 µM is at least 40%.
Marked response: Not satisfied

Exam item: Is inhibition at 25 µM at least 40%? Consider O=c1cc(Cc2cccc3ccccc23)c(C2CC2)c2n1[C@H](CO)CS2 [Example 16]
Marked response: Satisfied
